assay: Phase II AD study: plasma PK samples; format: in vivo, human; conditions: human, plasma, topical, 1 % cream BID, Subject 316651; 1% BID; Week 2
quantityKind: concentration at 2 week (ng/mL)
Give the value, in units of ng/mL, as a plain number.

Memo: CC(C)c1c(O)cc(/C=C/c2ccccc2)cc1O [Tapinarof, 3,5-Dihydroxy-4-isopropyl-trans-stilbene] , reported concentration at 2 week: 181

----------
test: Phase II AD study: plasma PK samples; assay type: in vivo, human; settings: human, plasma, topical, 1 % cream BID, Subject 110406; 1% BID; Week 4
quantityKind: concentration at 4 week (ng/mL)
Write it as a number; the unit ng/mL goes unstated.

The reported value for CC(C)c1c(O)cc(/C=C/c2ccccc2)cc1O [Tapinarof, 3,5-Dihydroxy-4-isopropyl-trans-stilbene] in terms of concentration at 4 week is 4.9

----------
assay: Phase II AD study: plasma PK samples; type: in vivo, human; details: human, plasma, topical, 1 % cream BID, Subject 110604; 1% BID; Week 4
quantityKind: concentration at 4 week (ng/mL)
Enter your answer as a number in ng/mL; do not include the unit.

// concentration at 4 week value for CC(C)c1c(O)cc(/C=C/c2ccccc2)cc1O [Tapinarof, 3,5-Dihydroxy-4-isopropyl-trans-stilbene] : 0.43

----------
assay: rat subcutaneous 13-week toxicology study (NOAEL) and predicted safety margin; conditions: in vivo, sc, rat subcutaneous 3 mg/kg/day, read-out: NOAEL AUC(0-24)
quantityKind: AUC(0-t)
Record the result as number plus unit.

Lab note: CC(C)c1c(O)cc(/C=C/c2ccccc2)cc1O [Tapinarof, 3,5-Dihydroxy-4-isopropyl-trans-stilbene] gave AUC(0-t) of 99 ng·h/mL

----------
experiment: Phase II AD study: plasma PK samples; assay type: in vivo, human; settings: human, plasma, topical, 1 % cream BID, Subject 110604; 1% BID; Week 1
quantityKind: concentration at 1 week (ng/mL)
# number only, unit ng/mL dropped from output

Entry under test: CC(C)c1c(O)cc(/C=C/c2ccccc2)cc1O [Tapinarof, 3,5-Dihydroxy-4-isopropyl-trans-stilbene] . Its concentration at 1 week was 1.48

----------
test: Phase II AD study: plasma PK samples; type: in vivo, human; conditions: human, plasma, topical, 1 % cream BID, Subject 110604; 1% BID; Week 8
quantityKind: concentration at 8 week (ng/mL)
API: value field is a number in ng/mL; no unit string.

The molecule CC(C)c1c(O)cc(/C=C/c2ccccc2)cc1O [Tapinarof, 3,5-Dihydroxy-4-isopropyl-trans-stilbene] showed concentration at 8 week equal to 0.0716

----------
assay: Phase II AD study: plasma PK samples; type: in vivo, human; details: human, plasma, topical, 0.5 % cream BID, Subject 316851; 0.5% BID; Week 8
quantityKind: concentration at 8 week (ng/mL)
Return type: number; implicit unit ng/mL.

For reference, reported concentration at 8 week for CC(C)c1c(O)cc(/C=C/c2ccccc2)cc1O [Tapinarof, 3,5-Dihydroxy-4-isopropyl-trans-stilbene] stands at 1.93

----------
assay: Phase II AD study: plasma PK samples; type: in vivo, human; details: human, plasma, topical, 0.5 % cream BID, Subject 316851; 0.5% BID; Week 1
quantityKind: concentration at 1 week (ng/mL)
I only need the number, in ng/mL, no unit after it.

The value of concentration at 1 week measured for the compound CC(C)c1c(O)cc(/C=C/c2ccccc2)cc1O [Tapinarof, 3,5-Dihydroxy-4-isopropyl-trans-stilbene] turned out to be 0.362
